// provenance: patent US20240148821A1

MEASUREMENT_TARGET: protein-protein interaction between Kras and SOS1 (biotin-tagged human Kras loaded with GDP, His-tagged human SOS1) (Homo sapiens (Human), UniProt P01116, G12D)
PROCEDURE_SUMMARY: Protein-protein interaction inhibition between Kras and SOS1 (KrasG12D-SOS PPI) using AlphaScreen;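 note: kras produced in E. coli, Ni-coupled donor beads and streptavidin acceptor beads, excitation 680 nm with emission detected at 520–620 nm via singlet oxygen transfer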
Type: biochemical
TEST_SETTINGS: AlphaScreen; biotin-tagged human Kras loaded with GDP, His-tagged human SOS1; read-out: KRAS G12D-SOS PPI IC50
Bridge positions count the residues as written; N and C are the ends. Square brackets hold non-standard residues; d marks the D form. Peptide text beside a SMILES is read from it. * marks the point of attachment. hPhe(3,5-F2-4-CF3) = N[C@@H](CCc1cc(F)c(C(F)(F)F)c(F)c1)C(=O)O; hPhe(3-Cl-4-CF3) = N[C@@H](CCc1ccc(C(F)(F)F)c(Cl)c1)C(=O)O; NMePhe(4-CF3) = CN[C@@H](Cc1ccc(C(F)(F)F)cc1)C(=O)O; 3Oxa8azabicyclo(3.2.1)octane = C1CC2COCC1N2*; hNle(7,7-F2) = N[C@@H](CCCCC(F)F)C(=O)O; NMeGly(cPent) = CN[C@H](C(=O)O)C1CCCC1; NMeCha = CN[C@@H](CC1CCCCC1)C(=O)O; NMehLeu = CN[C@@H](CCC(C)C)C(=O)O; NMeI = CC[C@H](C)[C@H](NC)C(=O)O; NMeD = CN[C@@H](CC(=O)O)C(=O)O; NMeL = CN[C@@H](CC(C)C)C(=O)O; NMeV = CN[C@H](C(=O)O)C(C)C; NMeS = CN[C@@H](CO)C(=O)O; Morpholide = C1CN(*)CCO1; NMeA = CN[C@@H](C)C(=O)O; Piperidide = C1CCN(*)CC1; Ac5c = NC1(C(=O)O)CCCC1; Aze = O=C(O)[C@@H]1CCN1; Sar = CNCC(=O)O; Propyl = CCC*
REPORTED_METRIC: pIC50
pIC50 (log units): -log10 of the concentration in mol/L.

Reference set (3 entries):
COMPOUND	pIC50
CC(C)C[C@H]1C(=O)N[C@@H](CCCCC(F)F)C(=O)N(C)[C@@H](C)C(=O)N2CC[C@H]2C(=O)N(C)[C@@H](CC2CCCCC2)C(=O)N(C)CC(=O)N[C@@H](CCc2ccc(C(F)(F)F)c(Cl)c2)C(=O)N2CCC[C@H]2C(=O)NC2(CCCC2)C(=O)N(C)[C@@H](C(C)C)C(=O)N(C)[C@H](C(=O)N2CCCCC2)CC(=O)N1C [Compound 145] ([NMeL][hNle(7,7-F2)][NMeA][Aze][NMeCha][Sar][hPhe(3-Cl-4-CF3)]P[Ac5c][NMeV][NMeD]-Piperidide; lactam N-11)	7.60
CC[C@H](C)[C@@H]1NC(=O)[C@H](CC(C)C)N(C)C(=O)C[C@@H](C(=O)N2CCOCC2)N(C)C(=O)[C@H]([C@@H](C)CC)N(C)C(=O)C2(CCCC2)NC(=O)[C@@H]2CCCN2C(=O)[C@H](CCc2cc(F)c(C(F)(F)F)c(F)c2)NC(=O)CN(C)C(=O)[C@H](Cc2ccc(C(F)(F)F)cc2)N(C)C(=O)[C@@H]2CCN2C(=O)[C@H](C)N(C)C1=O [Compound 1362] ([NMeL]I[NMeA][Aze][NMePhe(4-CF3)][Sar][hPhe(3,5-F2-4-CF3)]P[Ac5c][NMeI][NMeD]-Morpholide; lactam N-11)	9.09
CC[C@H](C)[C@@H]1NC(=O)[C@H](CC(C)C)N(C)C(=O)C[C@@H](C(=O)N2CCCCC2)N(C)C(=O)[C@H](C2CCCC2)N(C)C(=O)C2(CCCC2)NC(=O)[C@@H]2CCCN2C(=O)[C@H](CCc2ccc(C(F)(F)F)c(Cl)c2)NC(=O)CN(C)C(=O)[C@H](C2CCCC2)N(C)C(=O)[C@@H]2CCN2C(=O)[C@H](C)N(C)C1=O [Compound 182] ([NMeL]I[NMeA][Aze][NMeGly(cPent)][Sar][hPhe(3-Cl-4-CF3)]P[Ac5c][NMeGly(cPent)][NMeD]-Piperidide; lactam N-11)	9.01

Continue with the next compound.
(Q) Please report pIC50 for the following compound: CCCOC[C@H]1C(=O)N(C)CC(=O)N[C@@H](CCc2ccc(C(F)(F)F)c(Cl)c2)C(=O)N2CCC[C@H]2C(=O)NC2(CCCC2)C(=O)N(C)[C@@H](C2CCCC2)C(=O)N(C)[C@H](C(=O)N2C3CCC2COC3)CC(=O)N(C)[C@@H](CCC(C)C)C(=O)N[C@@H]([C@@H](C)CC)C(=O)N[C@@H](C)C(=O)N2CC[C@H]2C(=O)N1C [Compound 1326] ([NMehLeu]IA[Aze][NMeS](Propyl)[Sar][hPhe(3-Cl-4-CF3)]P[Ac5c][NMeGly(cPent)][NMeD]-{3Oxa8azabicyclo(3.2.1)octane}; lactam N-11)
(A) 8.29
